FYI, the data here is from the Human Domainome abundance scans (Beltran et al. 2025).

B1: Transcription intermediary factor 1-beta, residues 620 to 671; numbered along this chain, Q13263 (parent)
chain: TLDDSATICRVCQKPGDLVMCNQCEFCFHLDCHLPALQDVPGEEWSCSLCHV

# Variants of: B1
# test.description: abundance fitness (aPCA) (normalised: wild type 0, dead -1); higher = more abundant; growth selection in yeast, the domain comes from the species named
# assay.setup: Homo sapiens
measured.property: abundance fitness
# answer = number (no unit)

// abundance fitness lookup, variant = `S48E` , result: -0.014

// abundance fitness lookup, variant = `V11P` , result: -0.779

// abundance fitness lookup, variant = `D31V` , result: -0.254

// abundance fitness lookup, variant = `R10G` , result: -0.291
